The measured values listed here are drawn from patent US20200223889A1.

# key: entry, value: Ki
test-target: human MC4R (Homo sapiens)
Construct: expressed in transfected cells
experiment: 125NDP-α-MSH competitive binding to membranes of BHK cells expressing human MC4 receptor (filtration assay)
applied-conditions: human MC4R, BHK cell membranes, 125NDP-α-MSH radioligand; read-out: MC4R binding Ki
Positions of bridges follow the written chain, without caps; N, C: chain ends. Non-standard residues stand in square brackets, D forms with d. Residues, ends and D or L forms follow the SMILES beside them.
Give the value, in units of nM, as a plain number.

compound	parameter-measured	obs-value
NCCCC[C@H]1NC(=O)[C@@H]2CSSC[C@H](NC(=O)[C@H](Cc3c[nH]c4ccccc34)NC(=O)[C@H](Cc3c[nH]cn3)NC(=O)[C@@H](Cc3ccccc3)NC(=O)[C@H](Cc3c[nH]cn3)NC1=O)C(=O)N[C@H](CCCCN)C(=O)N[C@@H](Cc1c[nH]cn1)C(=O)N[C@H](Cc1ccccc1)C(=O)N[C@@H](Cc1c[nH]cn1)C(=O)N[C@@H](Cc1c[nH]c3ccccc13)C(=O)N2 [Chem. 86] (cyclo(C[dK]H[dF]HWC[dK]H[dF]HW); disulfide 1-7)	Ki	9.6

# evaluate next
-- ask Consider the compound C[C@@H]1NC(=O)[C@@H]2CSSC[C@H](NC(=O)[C@H](Cc3c[nH]c4ccccc34)NC(=O)[C@H](CCCNC(=N)N)NC(=O)[C@@H](Cc3ccccc3)NC(=O)[C@H](Cc3c[nH]cn3)NC1=O)C(=O)N[C@@H](C)C(=O)N[C@@H](CCCCN)C(=O)N[C@@H](CCCCN)C(=O)N[C@@H](CCCCN)C(=O)N[C@@H](CCCNC(=N)N)C(=O)N2 [Chem. 59] (cyclo(AH[dF]RWCAKKKRC); disulfide 6-12) and give its measured Ki.
-- reply 0.01

====

test-target: human MC4R (Homo sapiens, UniProt P32245)
Construct: expressed in transfected cells
Sequence (P32245 whole entry): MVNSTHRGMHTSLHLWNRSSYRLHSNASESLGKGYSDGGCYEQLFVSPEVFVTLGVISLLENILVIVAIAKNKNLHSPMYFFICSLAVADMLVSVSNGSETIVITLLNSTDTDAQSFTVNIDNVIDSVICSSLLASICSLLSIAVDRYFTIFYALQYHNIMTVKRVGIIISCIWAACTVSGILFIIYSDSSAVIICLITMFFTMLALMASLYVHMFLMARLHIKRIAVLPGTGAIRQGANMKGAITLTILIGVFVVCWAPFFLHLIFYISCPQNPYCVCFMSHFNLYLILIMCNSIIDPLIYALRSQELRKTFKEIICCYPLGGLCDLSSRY
experiment: Functional cAMP assay (CisBio HTRF) in BHK cells expressing human MC4R
Type: cell-based
applied-conditions: BHK cells expressing human MC4R; '>' = highest dose used with no response; read-out: MC4R cAMP EC50
Experimental: In order to assess the potency of the compounds on human MC1R and human MC4R cAMP signalling was measured. cAMP induction was measured by c-AMPdynamic2 assay, HTRF 62AM4PEC system from CisBio for the human MC1R and human MC4R according to the protocol provided by the vendor. BHK cells expressing the human MC1 or MC4 receptor were generated by stable transfection with expression vectors encoding the cDNA of either MC1R or MC4R. […]
Positions of bridges follow the written chain, without caps; N, C: chain ends. Non-standard residues stand in square brackets, D forms with d. Residues, ends and D or L forms follow the SMILES beside them.
pEC50 overview
FYI, pEC50 means -log10 of a concentration in mol per litre.

A selection of reference data follows.
compound	parameter-measured	obs-value
N=C(N)NCCC[C@@H]1NC(=O)[C@@H](Cc2ccccc2)NC(=O)[C@H](Cc2c[nH]cn2)NC(=O)CNC(=O)[C@@H]2CSSC[C@H](NC(=O)[C@H](Cc3c[nH]c4ccccc34)NC1=O)C(=O)NCC(=O)N[C@@H](Cc1c[nH]cn1)C(=O)N[C@H](Cc1ccccc1)C(=O)N[C@@H](CCCNC(=N)N)C(=O)N[C@@H](Cc1c[nH]c3ccccc13)C(=O)N2 [Chem. 2] (cyclo(CGH[dF]RWCGH[dF]RW); disulfide 1-7)	pEC50	11.00
NCCCC[C@@H]1NC(=O)[C@H](CCCCN)NC(=O)[C@@H]2CSSC[C@H](NC(=O)[C@H](Cc3c[nH]c4ccccc34)NC(=O)[C@H](CCCCN)NC(=O)[C@H](CCCCN)NC1=O)C(=O)N1CCC[C@H]1C(=O)N[C@@H](Cc1c[nH]cn1)C(=O)N[C@H](Cc1ccccc1)C(=O)N[C@@H](Cc1c[nH]cn1)C(=O)N[C@@H](Cc1c[nH]c3ccccc13)C(=O)N2 [Chem. 75] (cyclo(CKKKKWCPH[dF]HW); disulfide 1-7)	pEC50	9.36

Next, consider the following compound.
-- ask What value of pEC50 has been recorded for this entry: CC(C)[C@H]1NC(=O)[C@@H]2CSSC[C@H](NC(=O)[C@H](Cc3c[nH]c4ccccc34)NC(=O)[C@H](CCCNC(=N)N)NC(=O)[C@@H](Cc3ccccc3)NC(=O)[C@H](Cc3c[nH]cn3)NC1=O)C(=O)N[C@H](C(C)C)C(=O)N[C@@H](Cc1c[nH]cn1)C(=O)N[C@H](Cc1ccccc1)C(=O)N[C@@H](CCCNC(=N)N)C(=O)N[C@@H](Cc1c[nH]c3ccccc13)C(=O)N2 [Chem. 34] (cyclo(C[dV]H[dF]RWC[dV]H[dF]RW); disulfide 1-7)
-- reply 9.92
